# ASSAYED_TARGET: T1, EGFR overexpressed on cancer cell lines MDA-MB-468 and A431 (human, UniProt P00533 25-1210)
# T1 construct: whole, on cells; also called overexpressed EGFR; cancer-expressed EGFR
# METHOD_SUMMARY: flow cytometry, antibodies added at 2 µg/ml, A431 cells
Each entry gets NOT MET if its Median : PE-A stays under 200, and MET if its Median : PE-A is 200 or above.

The following binders have reported results that may help.
BINDER: monoclonal antibody 1D9 (antibody, V domains shown) VH: QVQLKQSGRSLVQPSQSLSITCTVSGFSLTDYGVHWIRQSPGKGLEWLGVIWRSGRTDYNAVFMSRLSITKDNSKSQVFFKMNGLQTDDTAIYYCAKNGPFGNFAGYWGQGTPVAVSA VL: DIVMSQSPSSLAVSVGEKVTMRCRSSQSLLDSYHQKNYLAWYLQKPGQSPKLLIYWASTRESGVPDRFTGSGSGTDFTLTISSVKAEDLAVYYCQEYYRYPYTFGGGTKLEIK
GROUP_LABEL: NOT MET

BINDER: monoclonal antibody 9G11 (antibody, V domains shown) VH: QVQLKQSGPGLVQPSQSLSITCTVSGFSLTRNGVHWVRQSPGKGLEWVGVIWRGGRTDYDAAFMSRLSITKDNSKSQVFFKMNSLQADDTAIYYCVKNGDDGNYGTYWGQGTLVTVSA VL: DIVMSQSPSSLGVSVGEKVTMSCKSSQSLLDSRNQKNYLAWYQQKPGQSPKLLIYWASTRESGVPDRFTGSGSGTEFTLTISSVKAEDLAIYYCQQYYNYPYTFGGGTKLEIT
GROUP_LABEL: NOT MET

BINDER: monoclonal antibody 11E11 (antibody, V domains shown) VH: QVQLKQSGPSLVQPSQSLSITCTVSGFSLTNYGVHWIRQSPGKGLEWLGVKWRGGRTDYNAAFMSRLSITRDNSRSQVFFKMNSLQTDDTAIYYCAKNGPFGNFAGYWGQGTLVTVSA VL: DIVMSQSPSSLAVSVGEKVSLTCKSSQSLLDNQKHYLAWYQQKPGQSPKLLIYWASTRESGVPDRFTGSGSGTEFTLTISSVKAEDLAVYYCQQFYNYPYTFGGGTKLEIK
GROUP_LABEL: MET

# next binder below
Exercise: hey, is Median : PE-A for this one >= 200? monoclonal antibody 4A4 (antibody, V domains shown) VH: QVQLKQSGRSLVQPSQSLSITCTVSGFSLTDYGVHWIRQSPGKGLEWLGVIWRSGRTDYNAVFMSRLSITKDNSKSQVFFKMNGLLIEDTAIYYCAKNGPFGNFAGYWGQGTPVAVSA VL: DIVMSQSPSSLAVSVGEKVTMRCRSSQSLLDSYHQKNYLAWYLQKPGQSPKLLIYWASTRESGVPDRFTGSGSGTDFTLTISSVKAEDLAAYYCQEYYRYPYTFGGGTKLEIK
Key: NOT MET
